System: A549 NSCLC
Assay: NCI tumour cell line growth inhibition, 48 h
Measurement type: GI50

Tested system A549 NSCLC; GI50 recorded for `CC1(C)N=C(N)N=C(N)N1c1cc(Cl)ccc1Cl` was > 100 µM

Form: item O=C1OC(=O)C2C1C1(c3ccccc3)C(c3ccccc3)=C(c3ccccc3)C2(c2ccccc2)S1=O (stereo not given) ; test system A549 NSCLC; GI50: > 100 µM

Tested system A549 NSCLC; GI50 recorded for N.N.NC(CS)C(=O)[O-].NC(CS)C(=O)[O-].[Pt+4] (stereo not given) was > 50 µM

Measured GI50 for this entry `CN(C)CCCNC(=O)c1cc(NC(=O)c2cc(NC(=O)c3cc(NC(=O)CCc4c[nH]c5ccccc45)cn3C)cn2C)cn1C` on A549 NSCLC: > 100 µM

Could you now consider this next compound?
`Cc1cc2c(F)c(Oc3ncnn4cc(OC[C@@H](C)OC(=O)[C@H](C)N)c(C)c34)ccc2[nH]1` on A549 NSCLC gives GI50 = 8.86 µM

* * *

Tested on: HCT-15 colon
Assay: NCI tumour cell line growth inhibition, 48 h
I'd be grateful if you could share measured TGI for these entries.

# count of solved cases: 5
What the record says about `COc1cccc(-c2nc3c(C(=O)NCCN(C)C)cccc3[nH]2)c1` : TGI is 41.6 µM

// CC(=O)OC1COC(n2c(N)c(C#N)c(C)c(C#N)c2=S)C(OC(C)=O)C1OC(C)=O (configuration not stated) : TGI value = > 100 µM

Summary for this compound, `COc1cc2[nH]c(-c3cccc(N(C)C)c3)cc(=O)c2cc1OC` : TGI is > 64.6 µM

Looking up `O=C1C(=O)c2ccccc2C(O)=C1C(CCc1ccccc1)C1=C(O)c2ccccc2C(=O)C1=O` , I see its TGI listed as > 100 µM

Measured TGI of `CC1(C)COC(/C=C/C2=NC(C)(C)CO2)=N1` : 34.5 µM

Please state TGI for every compound in the list that follows.
1. Cn1c(=O)c2[nH]c(CS(=O)(=O)Cc3nc4c([nH]3)c(=O)n(C)c(=O)n4C)nc2n(C)c1=O
2. CCOP(=O)(OCC)/C(C#N)=C/c1ccco1

# output
> 100 µM
> 100 µM

* * *

System: NCI-H460 lung
Outcomes you can answer with include only these: active, inactive

Previously resolved entries follow.
# input Can you look up the reported call for `COc1nc(C)cc2c(=O)n(-c3ccccc3)n(CCCN3CCN(c4ccc(Cl)cc4)CC3)c(=O)c12` for me?
# output inactive

# input Test call, this compound: `COc1ccc(-c2nc(-c3cn(C)c4ncccc34)cs2)cc1`
# output inactive

# input Can you look up the reported call for `Cc1[nH]c(/C=C2\C(=O)Nc3ccc(F)cc32)c(C)c1C(=O)NC[C@H](O)CN1CCOCC1` for me?
# output inactive

Moving on to the next compound.
# input Check the results log: what was the call for `O=C(Nc1ccc(Cl)cc1)c1cc2ccccc2cc1O` ?
# output inactive

* * *

Tested on: OVCAR-4 ovarian
Assay: NCI tumour cell line growth inhibition, 48 h
Exercise: state measured TGI for each of the compounds provided.

Here are 2 compounds together with their reported answers.
Looking up `Cc1cc2c(F)c(Oc3ncnn4cc(OC[C@@H](C)OC(=O)[C@H](C)N)c(C)c34)ccc2[nH]1` , I found its TGI recorded as 23.8 µM

Reported TGI ( `COc1ccc(/C=C2/C[N+](C)(C)C/C(=C/c3ccc(OC)cc3)C2=O)cc1` ) = > 88.9 µM

Batch lookup, TGI per entry.
1. CC(NNC(=S)N1CCCCCC1)c1ccc2ccccc2n1 (stereo not drawn)
2. c1ccc(N=C2c3ccccc3C3=NCCCN32)cc1

# output
1: 13.8 µM; 2: > 100 µM

Dear reader, for each entry below, please note its TGI.
1. Cc1cc2c(s1)C(=O)c1sccc1C2=O
2. CC(C)CCC[C@@H](C)C1CCC2[C@@H]3CCC4CC(CCC=C(c5cc(Cl)c(OC(=O)c6ccccc6)c(C(=O)O)c5)c5cc(Cl)c(OC(=O)c6ccccc6)c(C(=O)O)c5)CC[C@]4(C)C3CC[C@@]21C (stereo partly drawn)
3. CCC1(N=[N+]=[N-])C(=O)Nc2cc(C)ccc2C1=O (stereo not drawn)
4. O=C(Nc1ncc(Cc2ccccc2Cl)s1)c1ccc2c(c1)OCCO2

# output
1: 1.45 µM; 2: > 100 µM; 3: > 100 µM; 4: > 68.2 µM

# per-item lookup of TGI; items listed below
1. [N-]=[N+]=Nc1ccc2c(c1)Sc1ccccc1N2CCCCCl
2. O=C1/C(=C\c2ccc(-c3ccc(Cl)cc3Cl)o2)SC2N=C(COc3ccc(Cl)cc3)NN12 (stereo not drawn)
3. O=C(O)C1CC(c2ccccc2)=NN1c1ccccc1 (stereo not drawn)

# output
> 100 µM
> 100 µM
> 100 µM

Okay, here is my list. What is TGI for each of these?
1. C/C=C(\C)C(=O)O[C@H]1C=CC(=O)O[C@H]1CNC(=O)[C@H](C)O
2. O=C(c1ccncc1)n1nc(-c2ccccc2)c(N=Nc2ccc([N+](=O)[O-])cc2)c1-c1ccccc1
3. COC(=O)[C@H](Cc1ccccc1)NC(=O)N1CCN(C(=O)N[C@@H](Cc2ccccc2)C(=O)OC)CCN(C(=O)N[C@@H](Cc2ccccc2)C(=O)OC)CC1
4. CC1=Cc2cc3[n-]c(cc4nc(cc5[n-]c(cc1n2)cc5C)C(C)=C4CCC(=O)O)c(CCC(=O)O)c3C.[Pd+2]
5. Cc1sc2nc3n(c(=O)c2c1C)N=C(c1ccc(Cl)cc1)CS3
6. C=C1C(=O)C23CC1C[C@H](OC(C)=O)C2C1(C)C(OC(C)=O)C[C@H](O)C(C)(C)[C@H]1C(O)[C@@H]3OC(C)=O (stereo partly drawn)
7. CCN(CC)CCOc1ccc(/C=C2\CC3C4CC=C5C[C@@H](N6CCCC6)CC[C@]5(C)C4CC[C@]3(C)[C@H]2O)cc1OC (stereo partly drawn)

# output
36.1 µM
28.2 µM
> 100 µM
> 46.8 µM
> 100 µM
25.7 µM
> 82.3 µM

* * *

Assign GI50 to each entry below.
Test system: SF-539 CNS
Experiment: NCI tumour cell line growth inhibition, 48 h

Sample records with GI50:
GI50 recorded for this compound, `O=c1cc(-c2ccccc2)nc2n1CCN2Cc1ccccc1` , is 27.8 µM

Entry CC(NNC(=S)N1CCCCCC1)c1ccc2ccccc2n1 (centres undefined) ; GI50 = 1.68 µM

// GI50 lookup, compound = `COc1cc(/C=C/C(=O)c2ccc(Cl)cc2)ccc1OS(=O)(=O)c1ccc(C)cc1` , result: 11.2 µM

# GI50 of `O=C1c2ccccc2-c2c1c1ccccc1c(=O)n2CCNCCNCCn1c2c(c3ccccc3c1=O)C(=O)c1ccccc1-2` = 0.542 µM

Looking up `C/C=C(\C)C(=O)O[C@H]1C=CC(=O)O[C@H]1CNC(=O)[C@H](C)O` , I found its GI50 recorded as 19.4 µM

What the record says about `O=C([CH-]C(=O)c1ccccc1)c1ccccc1.O=C([CH-]C(=O)c1ccccc1)c1ccccc1.[Nd+3].[OH-].[OH3+]` : GI50 is 15.8 µM

# GI50 of `COc1nc(C)cc2c(=O)n(-c3ccccc3)n(CCCN3CCN(c4ccc(Cl)cc4)CC3)c(=O)c12` = > 50 µM

Given item O=C(C(Br)Br)C(Br)C(Br)c1ccccc1 (centres undefined) , the value recorded as its GI50 is 2.43 µM

Kindly review the next compound as well.
Record `OCCCCC#Cc1ccccc1C#Cc1ccccc1C(F)(F)F` . Reported GI50: 12 µM

* * *

Test system: MALME-3M melanoma
Assay: NCI tumour cell line growth inhibition, 48 h
Measurement type: GI50

# example entries with known answers
Notebook: `CN(C)Cc1ccc(C(=O)Nc2ccc3ncnc(Nc4ccc(Oc5cccc(F)c5)c(Cl)c4)c3c2)cc1` , GI50 read as 1530 nM

Please fill in: GI50 reported for CC(NNC(=S)N1CCCCCC1)c1ccc2ccccc2n1 (stereo unspecified) = 3150 nM

Documented GI50 of `C=C1C(=O)O[C@H]2[C@H]1CC/C(Cn1cc(-c3ccccc3)nn1)=C\CC[C@@]1(C)O[C@@H]21` : 1170 nM

Please give GI50 for each item listed below.
1. C/C=C(\C)C(=O)O[C@H]1C=CC(=O)O[C@H]1CNC(=O)[C@H](C)O
2. O=C1c2ccccc2-c2c1c1ccccc1c(=O)n2CCCN1CCOCC1
3. CCN(CC)CCCCCCCNc1c2ccc(Cl)cc2nc2ccc(OC)cc12

# output
1: 18500 nM; 2: 9430 nM; 3: 2050 nM

* * *

Hi there, I'd appreciate the recorded TGI for every entry that follows.
System: K-562 leukemia
Assay: NCI tumour cell line growth inhibition, 48 h

Value of TGI reported for the compound `CC[N+](CC)(CC)CCCn1c2c(c3ccccc3c1=O)C(=O)c1ccccc1-2` is > 100 µM

Record `C[C@]12CCC(=O)C(O)=C1CC[C@@H]1[C@@H]2CC[C@]2(C)C(=O)CC[C@@H]12` . Reported TGI: > 100 µM

The recorded TGI for entry `O=C(c1ccncc1)n1nc(-c2ccccc2)c(N=Nc2ccc([N+](=O)[O-])cc2)c1-c1ccccc1` equals > 100 µM

So for `O=C(Nc1ccc(Cl)cc1)c1cc2ccccc2cc1O` , the logged TGI turned out to be > 100 µM

The measured TGI associated with `C=C1C(=O)O[C@H]2[C@H]1CC/C(Cn1cc(-c3ccccc3)nn1)=C\CC[C@@]1(C)O[C@@H]21` reads 8.49 µM

Hi there! I need TGI for each item below, if you can.
1. Nc1ccccc1C#C/C=C\C#Cc1ccc(Cl)cc1Cl
2. CC(C)(C)[C@H]1CO[C@]2(C)[C@@H]3C[C@@H]3C(=O)N12
3. O=C1CCC2SC1CCC2=O
4. CC1OC(O[C@H]2CC[C@]3(C)[C@H]4CC=C5[C@@H]6[C@@H](C)[C@H](C)CC[C@]6(C(=O)O)CC[C@@]5(C(=O)O)[C@]4(C)CC[C@H]3C2(C)C)C(O)C(O)C1O (stereo partly specified)

# output
1: > 100 µM; 2: > 100 µM; 3: > 100 µM; 4: > 75 µM

Return reported TGI values for all items listed beneath this line.
1. S=C(Nc1ccc(Cl)cc1)Nc1ccc(Cl)cc1 (tested in a mixture with another compound)
2. Cn1c(=O)c2[nH]c(CS(=O)(=O)Cc3nc4c([nH]3)c(=O)n(C)c(=O)n4C)nc2n(C)c1=O

# output
> 100 µM
> 100 µM

Report TGI for every entry below.
1. CCOC(=O)C1C(=O)c2ccccc2CN1Cc1ccccc1 (stereo unspecified)
2. CCSc1nc(N=Cc2cccs2)c2cn[nH]c2n1
3. CCOC(=O)CC[C@@H](NC(=O)c1ccc(N[C@@H]2c3cc4c(cc3C(c3cc(OC)c(O)c(OC)c3)C3C(=O)OC[C@@H]32)OCO4)cc1)C(=O)OCC (stereo partly specified)
4. CC(=O)Nc1ccc(C2[C@H]3C(=O)N(c4ccc(Cc5ccc(N6C(=O)[C@@H]7ON(c8ccccc8)C(c8ccc(NC(C)=O)cc8)[C@@H]7C6=O)cc5)cc4)C(=O)[C@H]3ON2c2ccccc2)cc1 (stereo partly specified)
5. CN(C)c1ccc2c3c(c(=O)oc2c1)CCC3

# output
1: > 100 µM; 2: > 100 µM; 3: > 10 µM; 4: > 100 µM; 5: > 100 µM

The reported measurements were obtained from PubChem BioAssay (NCI).
